Property: pKd; scope: individual binders
subject.of.test: T1, human MSLN-FL-his protein (human, UniProt Q13421 296-580)
T1 construct: made in HEK293E cells, purified on nickel column; also called hMSLN-FL-his; human MSLN full-length protein; not shown: His tag
assay.remarks: SPR (Biacore), antibody captured on Protein A chip;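 also: flow cell at 25 °C, antigen injected for 240 s at five concentrations from 200 nM downward, dissociation followed up to 600 s, double-referenced, fitted with Langmuir 1:1 model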
Recall that pKd is obtained by taking minus log10 of the concentration measured in molar.

The following binders have reported results that may help.
binder: S009-F8-7.5 (antibody, human IgG1, kappa, V domains shown, human-murine chimeric antibody, human IgG1/kappa constant regions) VH: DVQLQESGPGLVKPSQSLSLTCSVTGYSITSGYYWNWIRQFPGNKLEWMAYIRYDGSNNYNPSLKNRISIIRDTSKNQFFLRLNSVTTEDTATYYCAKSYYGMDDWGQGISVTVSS VL: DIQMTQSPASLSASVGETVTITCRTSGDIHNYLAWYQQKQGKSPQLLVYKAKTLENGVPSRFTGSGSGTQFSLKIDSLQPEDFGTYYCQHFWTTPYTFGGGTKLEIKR
pKd: 7.03
--
binder: S009-F7.26.15 (antibody, human IgG1, kappa, V domains shown, human-murine chimeric antibody, human IgG1/kappa constant regions) VH: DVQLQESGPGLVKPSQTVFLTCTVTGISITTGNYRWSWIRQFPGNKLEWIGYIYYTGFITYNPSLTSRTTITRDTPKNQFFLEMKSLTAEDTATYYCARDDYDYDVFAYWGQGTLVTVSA VL: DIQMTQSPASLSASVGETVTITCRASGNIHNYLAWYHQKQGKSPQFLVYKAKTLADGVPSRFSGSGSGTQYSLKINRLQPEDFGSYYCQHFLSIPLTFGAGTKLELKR
pKd: 9.70

We next turn to a different binder, shown below.
Entry under review: S009-F8-15.19 (antibody, human IgG1, kappa, V domains shown, human-murine chimeric antibody, human IgG1/kappa constant regions) VH: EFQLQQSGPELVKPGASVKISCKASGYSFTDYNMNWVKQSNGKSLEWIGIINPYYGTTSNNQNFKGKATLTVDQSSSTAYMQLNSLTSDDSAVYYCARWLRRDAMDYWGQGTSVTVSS VL: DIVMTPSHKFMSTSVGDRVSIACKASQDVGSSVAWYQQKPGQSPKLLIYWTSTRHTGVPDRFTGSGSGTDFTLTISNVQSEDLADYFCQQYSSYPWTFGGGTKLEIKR . Reported pKd?
8.27
